Hello, the source for this data is ChEMBL document CHEMBL4665801, in case you need it.

Kindly state IC50 for each of the entries shown.
- Tested on: MIA PaCa-2
- run-description: Cytotoxicity against human MIA PaCa-2 cells assessed as reduction in cell viability after 48 hrs by CellTiter-Glo assay
- Type: functional, cell-based
- condition-label: MIA PaCa-2, 48 h
All answers are understood in nM, so give the number only.

Quick check: IC50 of Cc1cnc(C#Cc2cccc(-c3nn(-c4nc(C(=O)O)cs4)c(CC4CC4)c3Cc3ccc(S(N)(=O)=O)c(F)c3)c2)o1 ?
671

IC50 for CCCC#Cc1cc(-c2nn(-c3nc(C(=O)O)cs3)c(CC3CC3)c2Cc2ccc(S(N)(=O)=O)c(F)c2)ccc1F ?
746

Would you mind telling me what IC50 value was observed for NS(=O)(=O)c1ccc(Cc2c(-c3ccc(F)c(/C=C/C4CC4)c3)nn(-c3nc(C(=O)O)cs3)c2CC2CC2)cc1F ?
837

Find the recorded IC50 belonging to Cc1nc(C#Cc2cccc(-c3nn(-c4nc(C(=O)O)cs4)c(CC4CC4)c3Cc3ccc(S(N)(=O)=O)c(F)c3)c2)cs1 and report it.
471

Name the reported IC50 value associated with the compound NS(=O)(=O)c1ccc(Cc2c(-c3ccc(F)c(-c4ccccc4)c3)nn(-c3nc(C(=O)O)cs3)c2CC2CC2)cc1
8450

Any idea what its IC50 is? The compound is NS(=O)(=O)c1ccc(Cc2c(-c3cccc(C#Cc4ccc(C(F)(F)F)s4)c3)nn(-c3nc(C(=O)O)cs3)c2CC2CC2)cc1F
803

---

I'd be grateful if you could share measured pIC50 for these entries.
- System: MIA PaCa-2
- run-description: Cytotoxicity against human MIA PaCa-2 cells assessed as reduction in cell viability after 48 hrs by CellTiter-Glo assay
- Format: functional, cell-based
- condition-label: MIA PaCa-2, 48 h
Bear in mind: pIC50 is minus log10 of a mol/L concentration; give just that figure.

So what's the measured pIC50 for this one? C/C=C/c1cc(-c2nn(-c3nc(C(=O)O)cs3)c(CC3CC3)c2Cc2ccc(S(N)(=O)=O)c(F)c2)ccc1F
6.28

What pIC50 value was documented for this compound, CC(C)(C)c1ccc(C#Cc2cc(-c3nn(-c4nc(C(=O)O)cs4)c(CC4CC4)c3Cc3ccc(S(N)(=O)=O)c(F)c3)ccc2F)s1 ?
6.18

Given CC(C)CC#Cc1cc(-c2nn(-c3nc(C(=O)O)cs3)c(CC3CC3)c2Cc2ccc(S(N)(=O)=O)c(F)c2)ccc1F , state its recorded pIC50.
6.04
